- assay system: T1, cynomolgus serum albumin (cynomolgus)
- T1 construct: also called CSA; cyno serum albumin
- T1 sequence (A2V9Z4 25-608): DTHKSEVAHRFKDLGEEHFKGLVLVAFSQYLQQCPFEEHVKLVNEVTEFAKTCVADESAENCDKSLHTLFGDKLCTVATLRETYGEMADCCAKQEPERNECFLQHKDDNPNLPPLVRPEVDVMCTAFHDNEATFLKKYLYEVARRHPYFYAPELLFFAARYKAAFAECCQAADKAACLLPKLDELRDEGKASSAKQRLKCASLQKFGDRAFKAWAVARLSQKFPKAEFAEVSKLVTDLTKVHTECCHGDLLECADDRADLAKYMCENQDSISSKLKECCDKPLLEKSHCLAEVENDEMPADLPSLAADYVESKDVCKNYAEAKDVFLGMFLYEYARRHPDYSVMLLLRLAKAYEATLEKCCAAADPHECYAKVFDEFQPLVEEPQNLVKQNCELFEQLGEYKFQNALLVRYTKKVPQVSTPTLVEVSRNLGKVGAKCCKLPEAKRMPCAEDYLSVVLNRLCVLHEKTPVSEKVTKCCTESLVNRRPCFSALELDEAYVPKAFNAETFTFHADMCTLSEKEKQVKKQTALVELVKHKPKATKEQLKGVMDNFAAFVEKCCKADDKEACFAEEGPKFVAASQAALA
- protocol notes: Octet biolayer interferometry, biotinylated albumin on SA sensors, pH 6.0
measured quantity: kon (M⁻¹ s⁻¹)

[A] HSA-41 (designed binder, also called HSA-41 parent; HSA-41 AH parent) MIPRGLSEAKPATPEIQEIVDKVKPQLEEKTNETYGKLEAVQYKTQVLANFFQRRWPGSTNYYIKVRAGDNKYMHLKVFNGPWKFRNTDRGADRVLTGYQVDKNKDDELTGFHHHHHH
[B] HSA-31 (designed binder) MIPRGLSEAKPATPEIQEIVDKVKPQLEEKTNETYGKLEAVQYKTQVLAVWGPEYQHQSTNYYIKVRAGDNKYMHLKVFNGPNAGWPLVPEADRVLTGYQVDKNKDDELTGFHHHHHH
[C] HSA-20 (designed binder) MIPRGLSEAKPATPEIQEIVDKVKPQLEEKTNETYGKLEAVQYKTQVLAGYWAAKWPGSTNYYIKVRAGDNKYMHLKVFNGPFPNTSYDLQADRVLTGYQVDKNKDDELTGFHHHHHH
[D] HSA-36 (designed binder) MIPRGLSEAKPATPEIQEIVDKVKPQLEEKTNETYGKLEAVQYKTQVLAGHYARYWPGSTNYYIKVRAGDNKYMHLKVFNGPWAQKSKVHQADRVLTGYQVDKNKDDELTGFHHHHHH
(Q) Kindly provide a descending ordering of the above binders based on their kon. Write the labels, ordered according to the request.
(A) B, A, C, D
